Target: human Nectin-4 (protein used in the SPR affinity measurements) (human) (UniProt Q96NY8)
Sequence (Q96NY8 32-349 limits assumed): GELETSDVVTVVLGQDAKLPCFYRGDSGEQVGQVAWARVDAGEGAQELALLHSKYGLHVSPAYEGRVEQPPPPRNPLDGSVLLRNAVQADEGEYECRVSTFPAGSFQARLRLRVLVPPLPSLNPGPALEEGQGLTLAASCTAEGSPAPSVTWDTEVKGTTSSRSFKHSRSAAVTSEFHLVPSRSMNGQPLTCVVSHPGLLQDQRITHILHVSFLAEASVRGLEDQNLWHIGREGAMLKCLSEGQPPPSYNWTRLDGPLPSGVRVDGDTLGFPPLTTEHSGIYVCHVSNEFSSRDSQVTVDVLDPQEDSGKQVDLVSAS
Assay: SPR, human IgG1
# maps each entry to its kon
Number only, in M⁻¹ s⁻¹; omit the unit.

(Q) For the binder H5L1 (antibody, human IgG1, V domains shown, human IgG1 isotype) VH: QVQLVQSGAEVKKPGASVKVSCKASGYIFTSYWMHWVKQRPGQGLEWMGEIDPSDSYTNYNQKFKGRVTMTLDKSTSTTYMELSSLRSEDTAVYYCARGYGNYGDYWGQGTLVTVSS VL: DVVMTQSPLSLPVTPGEPASISCRSSKSLLHSNGITYLYWYLQKPGQSPQLLIYQMSNLASGVPDRFSSSGSGTDFTLKISRVEAEDVGVYYCAQNLELPWTFGGGTKVEIK , what kon is on record?
(A) 230000

Next:
(Q) I am curious: what kon value has been reported for H4L1 (antibody, human IgG1, V domains shown, human IgG1 isotype) VH: QVQLVQSGAEVKKPGASVKVSCKASGYIFTSYWMHWVKQAPGQGLEWMGEIDPSDSYTNYNQKFKGRVTMTLDKSTSTTYMELSSLRSEDTAVYYCARGYGNYGDYWGQGTLVTVSS VL: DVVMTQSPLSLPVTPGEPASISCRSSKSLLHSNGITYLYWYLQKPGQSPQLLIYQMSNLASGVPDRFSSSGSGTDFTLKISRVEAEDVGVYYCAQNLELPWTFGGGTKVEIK ?
(A) 310000
